- System: large (Lg) crabgrass
- assay.overview: Test A preemergence
- Type: in vivo, Digitaria sanguinalis
- condition.details: 125 g ai/ha
Entry flag: Satisfied if Crabgrass, Large plant response rating (0 to 100 scale) reaches 80; Not satisfied if it does not.

Completed entries (count: 8):
compound.smiles	measured.target	group
Clc1cnc(Oc2cccc(-c3ncco3)c2-n2cc(Br)cn2)nc1	large (Lg) crabgrass	Not satisfied
COc1cnc(Oc2ccccc2-n2cc(Br)cn2)nc1	large (Lg) crabgrass	Satisfied
NC(=S)c1cccc(Oc2ncc(Cl)cn2)c1-n1cc(Cl)cn1	large (Lg) crabgrass	Satisfied
Fc1cc(Oc2ncc(Cl)cn2)c(-n2cc(Br)cn2)cc1F	large (Lg) crabgrass	Not satisfied
Fc1cnc(Oc2ccccc2-n2cc(C(F)F)cn2)nc1	large (Lg) crabgrass	Satisfied
COc1cnn(-c2ccccc2Oc2ncc(Cl)cn2)c1	large (Lg) crabgrass	Satisfied
Clc1cnc(Oc2ccccc2-n2cc(-c3ccccn3)cn2)nc1	large (Lg) crabgrass	Not satisfied
O=Cc1cccc(Oc2ncc(Br)cn2)c1-n1cc(Br)cn1	large (Lg) crabgrass	Not satisfied

Please examine the following record next.
Task item: Hello, I need to know if `Clc1cnc(Oc2cccc(Cl)c2-n2cc(Cl)cn2)nc1` has measured Crabgrass, Large plant response rating (0 to 100 scale) not below 80. Thanks!
Reply: Satisfied
